MIC: recorded values
test system: Priestia megaterium; experiment: Antimicrobial activity against Bacillus megaterium clinical isolate by broth microdilution method; assay type: functional

{"smi": "c1cc2cc(-c3ccc(-c4cc5ccc(C6=NCCN6)cc5[nH]4)cc3)[nH]c2cc1C1=NCCN1", "unit-name": "µg/mL", "MIC": 0.3}
{"smi": "c1cc2cc(-c3ccc4cc(-c5ccc6oc(C7=NCCN7)cc6c5)[nH]c4c3)[nH]c2cc1C1=NCCN1", "unit-name": "µg/mL", "MIC": 0.4}
{"smi": "c1cc2cc(-c3ccc4cc(C5=NCCN5)[nH]c4c3)[nH]c2cc1C1=NCCN1", "unit-name": "µg/mL", "MIC": 0.6}
{"smi": "C(=C\\c1cc2ccc(C3=NCCN3)cc2[nH]1)/c1cc2ccc(C3=NCCN3)cc2[nH]1", "unit-name": "µg/mL", "MIC": 0.6}

---

tested on: Bacillus anthracis; assay: Protection against Bacillus anthracis Sterne spores induced cell death in mouse J774A1 cells assessed as dead cells at 10 uM by Sytox green dye staining assay relative to untreated control; format: functional, J774.A1
Overview of recorded Activity for various molecules

{"smi": "c1cc2cc(-c3ccc4cc(C5=NCCN5)[nH]c4c3)[nH]c2cc1C1=NCCN1", "Activity": "11%"}
{"smi": "c1cc2cc(-c3ccc4cc(-c5ccc6oc(C7=NCCN7)cc6c5)[nH]c4c3)[nH]c2cc1C1=NCCN1", "Activity": "24%"}
{"smi": "C(=C\\c1cc2ccc(C3=NCCN3)cc2[nH]1)/c1cc2ccc(C3=NCCN3)cc2[nH]1", "Activity": "27%"}
{"smi": "c1cc2cc(-c3ccc(-c4cc5ccc(C6=NCCN6)cc5[nH]4)cc3)[nH]c2cc1C1=NCCN1", "Activity": "22%"}
